- Species: Rattus norvegicus
- measurementNotes: Open TG-GATES - Regimen: Single
- Format: toxicity, organism-based, Sprague-Dawley
- Design: regimen Single, gender Male, age 6 weeks
- measurementContext: in vivo, po, 0 mg/kg, 3 h, tissue Plasma, route gavage, dose level Control
List of RALB values.
// return numeric value only (unit: g/dL, not printed)

Examples from the recorded data:
# compound, observationType, recordedValue
records = [
    ("CCc1oc2ccccc2c1C(=O)c1cc(Br)c(O)c(Br)c1", "RALB", 3.8),
    ("O=NN(CCCl)C(=O)NC1CCCCC1", "RALB", 3.7),
    ("CC[C@H]1[C@@H]2C[C@H]3[C@@H]4N(C)c5ccccc5[C@]45C[C@@H]([C@@H]2[C@H]5O)N3[C@@H]1O", "RALB", 3.7),
    ("ClC(Cl)(Cl)Cl [CARBON TETRACHLORIDE]", "RALB", 3.4),
    ("CC1=C(CC(=O)O)c2cc(F)ccc2/C1=C\\c1ccc([S+](C)[O-])cc1 (stereo not given)", "RALB", 2.6),
    ("OCCOCCN1CCN(C(c2ccccc2)c2ccc(Cl)cc2)CC1 (stereo not given) [HYDROXYZINE]", "RALB", 2.5),
]

Summary for this compound, CN(C)C(=N)N=C(N)N : RALB is 2.5

Summary for this compound, CC(C)N(CCC(C(N)=O)(c1ccccc1)c1ccccn1)C(C)C (stereo not given) [DISOPYRAMIDE] : RALB is 2.9

Summary for this compound, CCC1(c2ccccc2)C(=O)NC(=O)NC1=O : RALB is 3.3

Summary for this compound, CN(C)CCC=C1c2ccccc2COc2ccccc21 [DOXEPIN] : RALB is 2.5
